experiment: Solubility in test media, saturated solutions, HPLC; type: physicochemical; settings: thermodynamic from solid; ca. 20° C.; singly distilled water, pH 5.0; read-out: Solubility in water (pH 5.0)
Counter-ions that a name gives are not always drawn.
assayEndpoint: solubility at 20 min (µg/mL)
One number for each entry, in µg/mL.

What value of solubility at 20 min has been recorded for this entry: O=C1CN2Cc3c(ccc(Cl)c3Cl)N=C2N1 [Anagrelide hydrochloride, hydrochloride monohydrate, reference compound]
11

====

assay: In vitro metabolic stability in human hepatocytes; assay type: in vitro ADME
Where a name gives a salt, the structure may show the parent alone.
assayEndpoint: half-life (h)
Numbers only, in h.

# get_value(readout='half-life', item= O=C1CN2Cc3c(ccc(Cl)c3Cl)N=C2N1 [Anagrelide, hydrochloride monohydrate] )
6.62
